- Study System: T1, human LTβR extracellular domain fused with an Fc fragment at the C-terminus (human, UniProt P36941 31-227)
- T1 construct: extracellular domain; Bought; also called hLTβR; not shown: Fc fragment at the C-terminus
- T1 sequence (P36941 31-227): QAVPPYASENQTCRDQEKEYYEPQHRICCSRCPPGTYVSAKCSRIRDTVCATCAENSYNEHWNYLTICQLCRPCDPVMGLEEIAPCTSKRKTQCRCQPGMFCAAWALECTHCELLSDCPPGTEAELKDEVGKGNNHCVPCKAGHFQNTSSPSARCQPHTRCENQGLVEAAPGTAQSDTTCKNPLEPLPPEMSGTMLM
- Measurement Description: ELISA on coated target-Fc
// EC50 lookup, one value per entry

Binder	EC50 [mg/L]
LIGHT-5 (ligand, Printed mutations: T161P, R189S, W198Q, R228L; Soluble protein carries an N-terminal His tag) DGPAGSWEQLIQERRSHEVNPAAHLTGANSSLTGSGGPLLWETQLGLAFLRGLSYHDGALVVTKAGYYYIYSKVQLGGVGCPLGLASPITHGLYKRTPRYPEELELLVSQQSPCGSATSSSRVWQDSSFLGGVVHLEAGEKVVVRVLDERLVRLLDGTRSYFGAFMV	0.0538
LIGHT-18 (ligand, Soluble protein carries an N-terminal His tag) DGPAGSWEQLIQERRSHEVNPAAHLTGANSSLTGSGGPLLWETQLGLAFLRGLSYHDGALVITKAGYYYIYSKVQLGGVGCPLGQASTITHGLYKRTPRYPEELELLVSQQSPCGRATSSSRVWWDSSFLGGVVHLEAGEEVVVRVLDKRLVRLRDGTRSYFGAFMV	0.0894
LIGHT-22 (ligand, Printed mutations: S160G, T161S, L220S; Soluble protein carries an N-terminal His tag) DGPAGSWEQLIQERRSHEVNPAAHLTGANSSLTGSGGPLLWETQLGLAFLRGLSYHDGALVVTKAGYYYIYSKVQLGGVGCPLGLAGSITHGLYKRTPRYPEELELLVSQQSPCGRATSSSRVWWDSSFLGGVVHLEAGEKVVVRVSDERLVRLRDGTRSYFGAFMV	0.0686
